# target_or_system: UniProtKB Q99572
# Sequence (Q99572 whole entry): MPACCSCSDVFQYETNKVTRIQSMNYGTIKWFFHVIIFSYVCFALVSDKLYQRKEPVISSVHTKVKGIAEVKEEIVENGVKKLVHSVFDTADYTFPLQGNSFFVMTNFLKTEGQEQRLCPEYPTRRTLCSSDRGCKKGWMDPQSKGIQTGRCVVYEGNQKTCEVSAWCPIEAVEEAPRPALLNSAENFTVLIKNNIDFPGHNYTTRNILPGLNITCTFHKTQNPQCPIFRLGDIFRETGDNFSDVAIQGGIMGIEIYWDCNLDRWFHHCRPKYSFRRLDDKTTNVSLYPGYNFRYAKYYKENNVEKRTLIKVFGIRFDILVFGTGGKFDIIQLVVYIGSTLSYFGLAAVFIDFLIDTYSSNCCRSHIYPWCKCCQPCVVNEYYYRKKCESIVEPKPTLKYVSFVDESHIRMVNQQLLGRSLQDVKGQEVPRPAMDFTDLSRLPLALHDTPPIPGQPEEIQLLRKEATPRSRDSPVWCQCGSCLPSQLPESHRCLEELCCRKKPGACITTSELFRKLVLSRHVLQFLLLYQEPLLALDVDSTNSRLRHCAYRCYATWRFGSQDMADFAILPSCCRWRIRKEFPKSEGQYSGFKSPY
# assay_procedure: Antagonist activity at P2X7 receptor in human THP1 cells assessed as inhibition of BzATP-induced YO-PRO-1 Iodide uptake measured every 30 secs for 1 hr by fluorescence assay
# Type: cell-based
experimental_endpoint: IC50 (µM)

Below, each entry is followed by its recorded IC50 result.
[[record]]
sample_smiles = "COc1ccccc1N/C(=N/C#N)NCC12CC3CC(CC(C3)C1)C2"
unit_descriptor = "µM"
value = 0.051

[[record]]
sample_smiles = "N#C/N=C(/NCc1ccccn1)NCC12CC3CC(CC(C3)C1)C2"
unit_descriptor = "µM"
value = 0.234


(P) N#C/N=C(\NCC12CC3CC(CC(C3)C1)C2)Nc1ccncc1
(Q) N#C/N=C(/NCc1cccnc1)NCC12CC3CC(CC(C3)C1)C2
(R) N#C/N=C(\NCC12CC3CC(CC(C3)C1)C2)Nc1cccnc1
Hey, quick one: sort these by IC50, low to high? Output the labels ranked as instructed.
Q, R, P
(Q: 0.069 µM, R: 0.214 µM, P: 0.417 µM)

(P) N#C/N=C(/NCc1ccncc1)NCC12CC3CC(CC(C3)C1)C2
(Q) N#C/N=C(/Nc1ccccc1)NC12CC3CC(CC(C3)C1)C2
(R) N#C/N=C(\NCC12CC3CC(CC(C3)C1)C2)Nc1ccccc1F
(S) N#C/N=C(/NCCc1ccccc1)NCC12CC3CC(CC(C3)C1)C2
Sort the 4 compounds by IC50; largest first, smallest last. Output the labels ranked as instructed.
S, Q, P, R

(1) COc1ccccc1CN/C(=N/C#N)NCC12CC3CC(CC(C3)C1)C2
(2) COc1cccc(N/C(=N/C#N)NCC23CC4CC(CC(C4)C2)C3)c1
(3) N#C/N=C(\NCC12CC3CC(CC(C3)C1)C2)Nc1cccc2ncccc12
(4) COc1cccc(CN/C(=N/C#N)NCC23CC4CC(CC(C4)C2)C3)c1
(5) N#C/N=C(\NCCC12CC3CC(CC(C3)C1)C2)NCc1ccccc1
Hey, quick one: sort these by IC50, low to high? Output the labels ranked as instructed.
3, 2, 1, 4, 5
